Source of measurements: patent US6358883B1

# System: Diabrotica virgifera virgifera Leconte, 2nd instar western corn rootworm (WCR)
# Test Description: Western corn rootworm (WCR) soil test
# Assay type: in vivo
# Design: key: 0 = no effect; 1 = 10-25% kill; 2 = 26-35% kill; 3 = 36-45% kill; 4 = 46-55% kill; 5 = 56-65% kill; 6 = 66-75% kill; 7 = 76-85% kill; 8 = 86-99% kill; 9 = 100% kill
Quick list: WCR (50 ppm) rating per entry.

Below, each entry is followed by its recorded WCR (50 ppm) rating result.
O=[N+]([O-])CC(SCc1ccccc1)c1c(F)c(F)c(F)c(F)c1F (centres unmarked)	0
C=CCSC(C[N+](=O)[O-])c1ccc(Cl)cc1 (centres unmarked)	0
CCCOC(=O)CSC(C[N+](=O)[O-])c1c(F)c(F)c(F)c(F)c1F (centres unmarked)	9 (9 = 100% kill)
C=CCSC(C[N+](=O)[O-])c1ccc(C(C)C)cc1 (centres unmarked)	0
CCCOC(=O)CSC(C[N+](=O)[O-])c1cc(Br)cs1 (centres unmarked)	0
CC(C)CCCCCOC(=O)CSC(C[N+](=O)[O-])c1ccccc1 (centres unmarked)	0
O=[N+]([O-])CC(SCc1ccco1)c1ccc2c(c1)OCO2 (centres unmarked)	0
CCCCC(CC)COC(=O)CSC(C[N+](=O)[O-])c1ccccc1Cl (racemic)	5 (5 = 56-65% kill)
CCCSC(C[N+](=O)[O-])c1ccc(OC)cc1 (centres unmarked)	0
CCCSC(C[N+](=O)[O-])c1ccccc1Cl (racemic)	0

Return reported WCR (50 ppm) rating; argument: O=C(O)CSC(C[N+](=O)[O-])c1cccnc1 (centres unmarked)
0

Again, but for CCCCOC(=O)CSC(C[N+](=O)[O-])c1ccc(Cl)cc1 (centres unmarked)
0

Again, but for CCCCC(CC)COC(=O)CSC(C[N+](=O)[O-])c1ccccc1F (centres unmarked)
7 (7 = 76-85% kill)

Again, but for COC(=O)CSC(C[N+](=O)[O-])c1ccc(F)cc1 (centres unmarked)
3 (3 = 36-45% kill)

Again, but for CCCSC(C[N+](=O)[O-])c1cccs1 (centres unmarked)
4 (4 = 46-55% kill)
